# runDescription: Stability in mouse liver microsomes assessed as parent compound remaining at 10 uM in presence of NADPH incubated for 60 mins at 37 degC by UPLC/MS analysis
# Type: ADME, Microsome
# experimentalParameters: 1 h
experimentalReadout: Stability (%)
Number only, in %; omit the unit.

Before answering, review these 3 worked examples.
{"compound": "O=C(c1c2c(nn1-c1ccccc1)CCC(NCCc1ccc3c(c1)OCO3)C2)N1CCCCC1 (centres undefined)", "Stability (%)": 24}
{"compound": "CCCn1nc(C(=O)N(C)C)c2c1CCC(NCc1ccc(F)cc1)C2 (centres undefined)", "Stability (%)": 21}
{"compound": "O=C(c1nn(-c2ccccc2)c2c1CC(NCc1ccccc1)CC2)N1CCCCC1 (centres undefined)", "Stability (%)": 0.3}

# next compound below
Consider the compound shown here: O=C(c1c2c(nn1-c1ccc(F)cc1)CCC(NCCc1ccncc1)C2)N1CCCCC1 (centres undefined) What is its recorded Stability?
21
